Target: purified recombinant HCMV polymerase from strain AD169 (UL54) (Human cytomegalovirus, UniProt P08546)
Construct: made in house; host or cells: Sf21 insect cells (baculovirus)
Sequence (P08546 whole entry): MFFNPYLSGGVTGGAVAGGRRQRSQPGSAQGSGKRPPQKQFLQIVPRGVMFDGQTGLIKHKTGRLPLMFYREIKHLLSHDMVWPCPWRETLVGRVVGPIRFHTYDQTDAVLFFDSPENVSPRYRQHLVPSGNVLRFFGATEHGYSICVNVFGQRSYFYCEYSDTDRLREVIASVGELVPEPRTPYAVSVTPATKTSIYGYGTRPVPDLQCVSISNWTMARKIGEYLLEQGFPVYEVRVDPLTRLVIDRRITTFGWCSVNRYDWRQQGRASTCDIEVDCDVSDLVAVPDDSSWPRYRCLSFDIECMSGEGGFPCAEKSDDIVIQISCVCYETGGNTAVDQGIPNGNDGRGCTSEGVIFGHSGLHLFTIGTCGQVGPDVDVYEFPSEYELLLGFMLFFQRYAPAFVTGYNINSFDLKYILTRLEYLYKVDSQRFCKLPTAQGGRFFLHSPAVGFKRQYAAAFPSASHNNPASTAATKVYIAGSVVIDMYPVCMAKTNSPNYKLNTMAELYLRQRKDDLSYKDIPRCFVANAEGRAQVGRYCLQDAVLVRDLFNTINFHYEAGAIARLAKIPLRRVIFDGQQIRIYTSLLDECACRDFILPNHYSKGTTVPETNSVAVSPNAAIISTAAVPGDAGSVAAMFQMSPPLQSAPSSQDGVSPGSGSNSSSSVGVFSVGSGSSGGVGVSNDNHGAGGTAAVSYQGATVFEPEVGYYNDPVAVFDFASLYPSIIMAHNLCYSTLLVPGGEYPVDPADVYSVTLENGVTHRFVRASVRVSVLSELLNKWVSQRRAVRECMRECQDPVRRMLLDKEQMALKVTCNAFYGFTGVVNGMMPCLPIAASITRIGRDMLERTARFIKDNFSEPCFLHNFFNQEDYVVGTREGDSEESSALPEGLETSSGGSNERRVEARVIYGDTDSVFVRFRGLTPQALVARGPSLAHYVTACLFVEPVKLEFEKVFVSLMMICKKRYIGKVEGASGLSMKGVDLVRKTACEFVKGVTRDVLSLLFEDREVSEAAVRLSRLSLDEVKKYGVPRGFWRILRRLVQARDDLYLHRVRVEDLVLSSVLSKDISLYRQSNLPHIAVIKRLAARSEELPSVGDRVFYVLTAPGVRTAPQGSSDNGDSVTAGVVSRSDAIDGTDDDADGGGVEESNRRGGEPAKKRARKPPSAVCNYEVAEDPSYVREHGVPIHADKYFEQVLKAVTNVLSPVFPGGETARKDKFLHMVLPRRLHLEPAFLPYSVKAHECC
Test: HCMV Polymerase LANCE TR-FRET Assay
Type: biochemical
Details: 2 nM GST-UL54, 37° C. for 30 min; read-out: IC50 (nM) Example B
Classification by IC50 follows these ranges: Low: < 400 nM; Mid: ≥ 400 nM and < 600 nM; High: ≥ 600 nM

1. CC(c1ccc2c(c1)C(C)(C)CN2C(=O)[C@H]1CC(=O)N(c2cccc(C#N)c2)C1)n1ccnc1 (mixture of isomers) | Low
2. CC(=O)N1CCC2(CC1)CN(C(=O)[C@H]1CC(=O)N(c3cccc(C#N)c3)C1)c1ccc(CN3CCOCC3)cc12 | Mid
3. CC1(C)CN(C(=O)[C@H]2CC(=O)N(c3cccc(C#N)c3)C2)c2ccc(CCc3cncc(C#N)c3)cc21 | Low
4. N#Cc1cccc(N2C[C@@H](C(=O)N3CCc4cc(Cn5ccnc5)ccc43)CC2=O)c1 | Low
5. Cc1noc(C)c1Cc1ccc2c(c1)C(C)(C)CN2C(=O)[C@H]1CC(=O)N(c2cccc(C#N)c2)C1 | Low
6. CC1(C)CN(C(=O)[C@H]2CC(=O)N(c3cccc(Cl)c3)C2)c2ccc(Cn3ccnc3)cc21 | Low
7. Cn1cncc1CCc1ccc2c(c1)C(C)(CO)CN2C(=O)[C@H]1CC(=O)N(c2cccc(Cl)c2)C1 (single isomer, unassigned) | High
8. CC1CN(C(=O)[C@H]2CC(=O)N(c3cccc(Cl)c3)C2)c2ccc(CCn3ccnc3)cc21 (single isomer, unassigned) | Low
9. N#Cc1cccc(N2C[C@@H](C(=O)N3CC4(CCOCC4)c4cc(Cn5ccnc5)ccc43)CC2=O)c1 | High
10. Cc1cc2c(cc1Cn1ccnc1C)C(C)(C)CN2C(=O)[C@H]1CC(=O)N(c2cccc(C#N)c2)C1 | Low
11. CC1(C)CN(C(=O)C2CC(=O)N(c3cccc(C#N)c3)C2)c2ccc(COc3cncnc3)cc21 (stereo not drawn) | High
12. N#Cc1cccc(N2C[C@@H](C(=O)N3CC4(CC4)c4cc(Cc5cncnc5)ccc43)CC2=O)c1 | Mid
13. Cc1ncc(Cc2ccc3c(c2)C(C)(C)CN3C(=O)[C@H]2CC(=O)N(c3cccc(C#N)c3)C2)o1 | Mid
14. CC1(C)CN(C(=O)[C@H]2CC(=O)N(c3cccc(Cl)c3)C2)c2ccc(CCc3cncnc3)cc21 | Low
15. CC(=O)N1CCC2(CC1)CN(C(=O)[C@H]1CC(=O)N(c3cccc(C#N)c3)C1)c1ccc(Cc3cncnc3)cc12 | High
16. CC1CN(C(=O)[C@H]2CC(=O)N(c3cccc(Cl)c3)C2)c2ccc(CCc3cncnc3)cc21 (single isomer, unassigned) | Low
17. CC1(C)CN(C(=O)[C@H]2CC(=O)N(c3cccc(C#N)c3)C2)c2ccc(CCc3cncc(N)c3)cc21 | Low
18. Cc1nccn1Cc1ccc2c(c1)C(C)CN2C(=O)[C@H]1CC(=O)N(c2cccc(C#N)c2)C1 (single isomer, unassigned) | High
19. CC1(C)CN(C(=O)[C@H]2CC(=O)N(c3cccc(C#N)c3)C2)c2ccc(Cn3cncc3C(=O)O)cc21 | Mid
20. Cn1cc(CCc2ccc3c(c2)C(C)(C)CN3C(=O)[C@H]2CC(=O)N(c3cccc(C#N)c3)C2)cn1 | Mid
21. Cc1ncc(Cc2ccc3c(c2)C2(CC2)CN3C(=O)[C@H]2CC(=O)N(c3cccc(C#N)c3)C2)o1 | High
22. CC(=O)N1CCC2(CC1)CN(C(=O)[C@H]1CC(=O)N(c3cccc(C#N)c3)C1)c1ccc(Cn3ccnc3C)cc12 | High
23. CC1(C)CN(C(=O)C2CC(=O)N(c3cccc(C#N)c3)C2)c2cc(Cl)c(Cn3cnnc3)cc21 (stereo not drawn) | Low
24. CC1(C)CN(C(=O)[C@H]2CC(=O)N(c3cccc(C#N)c3)C2)c2ccc(Cc3ccncc3)cc21 | High
25. N#Cc1cccc(N2C[C@@H](C(=O)N3CC4(CC4)c4cc(Cn5ccnc5)ccc43)CC2=O)c1 | Low
26. N#Cc1cccc(N2C[C@@H](C(=O)N3CCc4nc(CCn5ccnc5)ccc43)CC2=O)c1 | Mid
